Entries and their Fik Kinase %Inhibition values follow.
molecular target: FLK-1 receptor (Mus musculus, UniProt P35918); construct: expressed in transfected cells; host or cells: NIH3T3 C7#3; experiment: FLK-1 ELISA (kinase activity of the FLK-1 receptor in FLK-1/NIH3T3 cells, VEGF stimulated); format: cell-based
Sequence (P35918 20-1345): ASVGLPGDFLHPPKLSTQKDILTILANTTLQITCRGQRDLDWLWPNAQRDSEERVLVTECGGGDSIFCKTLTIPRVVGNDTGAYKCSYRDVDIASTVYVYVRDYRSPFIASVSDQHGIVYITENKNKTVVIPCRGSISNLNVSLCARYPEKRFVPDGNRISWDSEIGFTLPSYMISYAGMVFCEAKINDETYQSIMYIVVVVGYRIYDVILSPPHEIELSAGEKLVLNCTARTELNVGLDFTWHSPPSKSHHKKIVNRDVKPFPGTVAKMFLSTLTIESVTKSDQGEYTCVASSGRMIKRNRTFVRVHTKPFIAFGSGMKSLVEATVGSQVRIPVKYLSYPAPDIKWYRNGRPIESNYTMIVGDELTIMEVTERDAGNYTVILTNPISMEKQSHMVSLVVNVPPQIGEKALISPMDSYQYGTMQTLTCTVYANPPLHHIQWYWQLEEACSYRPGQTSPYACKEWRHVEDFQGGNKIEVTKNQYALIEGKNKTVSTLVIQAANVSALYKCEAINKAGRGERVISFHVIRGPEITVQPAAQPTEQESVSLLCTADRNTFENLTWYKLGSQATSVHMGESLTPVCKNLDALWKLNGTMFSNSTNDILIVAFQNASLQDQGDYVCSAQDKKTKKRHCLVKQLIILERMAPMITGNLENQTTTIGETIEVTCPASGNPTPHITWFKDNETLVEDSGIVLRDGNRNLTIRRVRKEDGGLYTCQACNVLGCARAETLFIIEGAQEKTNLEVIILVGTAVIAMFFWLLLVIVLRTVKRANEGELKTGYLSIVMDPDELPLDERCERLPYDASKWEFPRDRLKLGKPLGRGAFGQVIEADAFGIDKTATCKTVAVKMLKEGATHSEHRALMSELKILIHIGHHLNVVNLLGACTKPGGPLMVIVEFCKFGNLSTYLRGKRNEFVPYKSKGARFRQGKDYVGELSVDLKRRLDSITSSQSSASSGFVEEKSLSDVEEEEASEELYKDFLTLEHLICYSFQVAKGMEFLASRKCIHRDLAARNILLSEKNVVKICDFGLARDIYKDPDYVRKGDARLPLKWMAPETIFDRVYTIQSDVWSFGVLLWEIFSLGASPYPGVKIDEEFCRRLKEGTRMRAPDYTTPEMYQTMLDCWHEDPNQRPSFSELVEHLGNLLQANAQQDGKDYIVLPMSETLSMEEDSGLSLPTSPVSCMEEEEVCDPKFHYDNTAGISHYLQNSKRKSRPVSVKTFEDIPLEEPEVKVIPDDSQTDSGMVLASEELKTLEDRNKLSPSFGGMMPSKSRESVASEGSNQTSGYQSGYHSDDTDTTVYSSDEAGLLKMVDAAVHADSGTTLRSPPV
Give a bare numeral; the unit % is implied.

Qu. Look up Fik Kinase %Inhibition of CCn1c2ccccc2c2cc(C=C3C(=O)Nc4ccc(Br)c(C)c43)ccc21 [10731/C02] and report it.
Ans. 3.1

----------
system: MET; test: MET biochemical kinase assay; set-up: species or system human; concentration or dose not given beside the values
Measured Parameter: Met Kinase % Inhibition (%)
Give a bare numeral; the unit % is implied.

Past entries and their recorded results:
- Chemical Smiles: "O=C1Nc2ccc(CCCl)cc2C1=Cc1ccc(O)c(Br)c1"
  Readout Unit: "%"
  Met Kinase % Inhibition: 84.7
- Chemical Smiles: "Cc1cc(C=C2C(=O)Nc3ccc(Br)c(C)c32)cc(C)c1OCc1ccccc1"
  Readout Unit: "%"
  Met Kinase % Inhibition: 10.2

Next:
Qu. Look up Met Kinase % Inhibition of Cc1cc(C=C2C(=O)Nc3ccc(S(=O)(=O)Nc4ccc(C(F)(F)F)cc4)cc32)cc(C)c1OCc1ccccc1 and report it.
Ans. -10.1

----------
biological target: EGFR (Homo sapiens, UniProt P00533); construct: Add 7 ug A431 cell lysate per well (EGFR source); endogenous in cells; host or cells: A431; assay: EGFR ELISA assay (in vitro kinase activity, EGFR captured from A431 cell lysate); type: biochemical; parameters: concentration or dose not given beside the values
Sequence (P00533 25-1210): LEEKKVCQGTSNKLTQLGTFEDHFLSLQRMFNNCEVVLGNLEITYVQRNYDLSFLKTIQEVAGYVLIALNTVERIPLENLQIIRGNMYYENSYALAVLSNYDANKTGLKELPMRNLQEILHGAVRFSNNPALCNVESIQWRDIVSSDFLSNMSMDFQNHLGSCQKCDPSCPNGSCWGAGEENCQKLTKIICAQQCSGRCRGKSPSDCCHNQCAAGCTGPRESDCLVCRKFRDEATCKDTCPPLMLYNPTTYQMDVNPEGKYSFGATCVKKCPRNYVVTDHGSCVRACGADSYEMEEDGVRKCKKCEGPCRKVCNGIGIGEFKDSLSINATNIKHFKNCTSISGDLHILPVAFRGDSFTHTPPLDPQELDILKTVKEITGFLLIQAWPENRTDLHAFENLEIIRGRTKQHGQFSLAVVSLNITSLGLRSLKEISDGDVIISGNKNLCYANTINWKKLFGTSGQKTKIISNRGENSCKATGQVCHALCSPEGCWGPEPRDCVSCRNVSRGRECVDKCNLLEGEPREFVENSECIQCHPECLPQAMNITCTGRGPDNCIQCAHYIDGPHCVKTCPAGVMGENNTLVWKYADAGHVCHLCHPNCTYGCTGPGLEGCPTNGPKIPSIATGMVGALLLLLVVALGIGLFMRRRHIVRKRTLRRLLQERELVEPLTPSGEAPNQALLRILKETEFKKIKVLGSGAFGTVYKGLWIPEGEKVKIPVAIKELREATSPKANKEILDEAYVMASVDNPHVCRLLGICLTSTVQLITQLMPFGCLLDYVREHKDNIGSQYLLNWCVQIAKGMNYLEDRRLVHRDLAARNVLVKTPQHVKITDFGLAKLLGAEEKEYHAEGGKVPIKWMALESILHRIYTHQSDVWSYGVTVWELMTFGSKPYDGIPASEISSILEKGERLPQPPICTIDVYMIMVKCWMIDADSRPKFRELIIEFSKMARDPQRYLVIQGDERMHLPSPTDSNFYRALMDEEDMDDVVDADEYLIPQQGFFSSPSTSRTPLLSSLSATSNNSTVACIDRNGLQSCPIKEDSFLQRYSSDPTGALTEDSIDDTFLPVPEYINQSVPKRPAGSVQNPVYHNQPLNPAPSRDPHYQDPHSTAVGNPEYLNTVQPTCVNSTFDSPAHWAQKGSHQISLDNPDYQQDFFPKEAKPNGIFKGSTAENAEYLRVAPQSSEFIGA
Entries and their Biochem EGFR %Inhibition values follow.
Give a bare numeral; the unit % is implied.

Past entries and their recorded results:
- Chemical Smiles: "CCc1cc(CC)c(C=C2C(=O)Nc3ccc(S(=O)(=O)NC)cc32)[nH]1"
  Biochem EGFR %Inhibition [%]: 39.4
- Chemical Smiles: "CNS(=O)(=O)c1ccc2c(c1)C(=Cc1ccc(OC)cc1O)C(=O)N2"
  Biochem EGFR %Inhibition [%]: -3.8
- Chemical Smiles: "O=C1Nc2ccc(S(=O)(=O)Nc3ccc(C(F)(F)F)cc3)cc2C1=Cc1cc(Cl)cc(Cl)c1O"
  Biochem EGFR %Inhibition [%]: 55.0

Next:
Qu. Look up Biochem EGFR %Inhibition of O=C1Nc2c(Br)cc(Br)cc2C1=Cc1ccccc1Br and report it.
Ans. 3.9

----------
target: FLK-1 receptor (Mus musculus, UniProt P35918); construct: expressed in transfected cells; host or cells: NIH3T3 C7#3; experiment: FLK-1 ELISA (kinase activity of the FLK-1 receptor in FLK-1/NIH3T3 cells, VEGF stimulated); type: cell-based
Label true when Fik Kinase %Inhibition < 7%; otherwise false.

- Chemical Smiles: "O=C1Nc2ccc(I)cc2C1=Cc1cccn1-c1ccc(Cl)cc1"
  Assigned Label: "true"
- Chemical Smiles: "COc1ccc(C=C2C(=O)Nc3ccc(I)cc32)c(O)c1"
  Assigned Label: "true"
- Chemical Smiles: "O=C1Nc2ccc(S(=O)(=O)N3CCOCC3)cc2C1=Cc1ccc(-c2ccccc2Cl)o1"
  Assigned Label: "false"
- Chemical Smiles: "N#Cc1ccc(C=C2C(=O)Nc3ccc(CCCl)cc32)cc1"
  Assigned Label: "true"
- Chemical Smiles: "COc1c([N+](=O)[O-])cc(C=C2C(=O)Nc3c(Br)cc(Br)cc32)cc1C(C)(C)C"
  Assigned Label: "false"
- Chemical Smiles: "COc1c(O)ccc(C=C2C(=O)Nc3c(Br)cc(Br)cc32)c1[N+](=O)[O-]"
  Assigned Label: "false"
- Chemical Smiles: "COc1c(C(C)C)cc(C=C2C(=O)Nc3ccc(S(=O)(=O)Nc4ccc(C(F)(F)F)cc4)cc32)cc1C(C)C"
  Assigned Label: "false"

Next up:
Qu. For O=C1Nc2ccc(CCCl)cc2C1=Cc1cc(Cl)cc(Br)c1O , is the recorded Fik Kinase %Inhibition below the cut-off of 7%?
Ans. false
